Below, each entry is listed alongside its reported IC50.
tested.target: GPR17 (Homo sapiens, UniProt Q13304)
Sequence (Q13304 whole entry): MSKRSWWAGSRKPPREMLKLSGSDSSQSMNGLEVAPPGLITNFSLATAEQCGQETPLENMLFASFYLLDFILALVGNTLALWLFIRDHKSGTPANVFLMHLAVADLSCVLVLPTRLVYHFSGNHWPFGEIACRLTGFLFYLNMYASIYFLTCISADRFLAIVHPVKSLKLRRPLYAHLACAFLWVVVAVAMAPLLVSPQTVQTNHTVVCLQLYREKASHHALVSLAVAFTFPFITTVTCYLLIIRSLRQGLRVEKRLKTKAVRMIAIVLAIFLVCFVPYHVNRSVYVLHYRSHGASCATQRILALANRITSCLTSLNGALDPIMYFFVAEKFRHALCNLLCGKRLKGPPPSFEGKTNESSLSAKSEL
assay.remarks: Calcium mobilization functional assay (GPR17 Ca2+ assay)
Type: cell-based
Set-up: host or cells: Flp-In T-REx CHO
condition.details: CHO hGPR17 cells, inhibition of 50 nM MDL29,951, Calcium 5 dye, FLIPR; read-out: Ca2+ assay pIC50 (converted)

compound	IC50
COC/C=C/c1cc(F)c(NS(=O)(=O)c2c[nH]c3cc(Cl)ccc23)nc1F [Compound I-252]	< 3.16 nM
O=S(=O)(Nc1cccc(F)c1Cl)c1c[nH]c2cc(Cl)ccc12 [Compound I-23]	> 31.6 nM
COc1c(Cl)ccc2c(S(=O)(=O)Nc3nc(F)c(Cl)cc3F)c[nH]c12 [Compound I-310]	< 3.16 nM
COc1ccc2c(S(=O)(=O)Nc3cc(F)c(C#N)cc3F)c[nH]c2c1 [Compound I-291]	< 3.16 nM
COc1ccc2c(S(=O)(=O)Nc3ccc(C#N)cc3F)c[nH]c2c1 [Compound I-112]	3.16 to 31.6 nM
N#Cc1ccc(NS(=O)(=O)c2c[nH]c3cc(C(F)(F)F)ccc23)cc1 [Compound I-190]	< 3.16 nM

I am curious: what IC50 value has been reported for COc1nc(NS(=O)(=O)c2c[nH]c3cc([N+](=O)[O-])ccc23)c(F)cc1CC#N [Compound I-351] ?
3.16 to 31.6 nM

Tell me the measured IC50 of Cc1ccc(NS(=O)(=O)c2c[nH]c3cc(Cl)ccc23)c(F)c1 [Compound I-56] , please.
> 31.6 nM

----------
tested.target: GPR17 (Homo sapiens, UniProt Q13304)
assay.remarks: cAMP accumulation functional assay (HTRF, Schild analysis)
Type: cell-based
Set-up: host or cells: Flp-In T-REx CHO
condition.details: CHO hGPR17 cells, Schild analysis vs MDL29,951, 5 μM forskolin, read-out: cAMP assay pA2 (converted)
measurement.name: Kb

compound.structure	Kb
O=S(=O)(Nc1ccc2nsnc2c1)c1c[nH]c2nc(Cl)ccc12	3.16 to 31.6 nM
N#Cc1ccc(NS(=O)(=O)c2c[nH]c3cc(F)ccc23)c(F)c1	> 31.6 nM
COc1nc(NS(=O)(=O)c2c[nH]c3c(OC)c(Cl)ccc23)c(F)cc1Cl	< 3.16 nM

Give its Kb value. Item: O=S(=O)(Nc1cc(F)c(Br)cc1F)c1c[nH]c2cc(Cl)ccc12
< 3.16 nM

What does the record list as Kb for O=S(=O)(Nc1cc(F)c(OCC2CC2)cc1F)c1c[nH]c2cc(Cl)ccc12 ?
3.16 to 31.6 nM

----------
tested.target: GPR17 (Homo sapiens, UniProt Q13304)
assay.remarks: Calcium mobilization functional assay (GPR17 Ca2+ assay)
Format: cell-based
Set-up: host or cells: Flp-In T-REx CHO
condition.details: CHO hGPR17 cells, inhibition of 50 nM MDL29,951, Calcium 5 dye, FLIPR; read-out: Ca2+ assay pIC50 (converted)
measurement.name: IC50

Recorded IC50, per entry:
compound.structure	measured
O=S(=O)(Nc1cccc2nsnc12)c1c[nH]c2cc(F)ccc12	3.16 to 31.6 nM
O=S(=O)(Nc1ncccc1F)c1c[nH]c2cc(Cl)ccc12	> 31.6 nM
N#Cc1ccc(NS(=O)(=O)c2c[nH]c3cc(OCC(F)(F)F)ccc23)c(F)c1	3.16 to 31.6 nM
O=S(=O)(Nc1cc(F)c(F)cc1F)c1c[nH]c2cc(Cl)ccc12	3.16 to 31.6 nM
Cc1cc(NS(=O)(=O)c2c[nH]c3cc(Cl)ccc23)c(F)cc1Cl	> 31.6 nM
N#Cc1ccc(NS(=O)(=O)c2c[nH]c3cc(C4CC4)ccc23)cc1	< 3.16 nM

Name the recorded IC50 for O=S(=O)(Nc1cc(F)c(Cl)cc1F)c1c[nH]c2nc(C(F)(F)F)ccc12 .
3.16 to 31.6 nM

Would you mind telling me what IC50 value was observed for O=S(=O)(Nc1nc(F)c(Cl)cc1F)c1c[nH]c2nc(Cl)ccc12 ?
3.16 to 31.6 nM

Param item = O=S(=O)(Nc1cc(F)cc(F)c1)c1c[nH]c2nc(Br)ccc12 ; retrieve measured IC50.
> 31.6 nM

----------
tested.target: UniProt Q13304
assay.remarks: Calcium mobilization functional assay (GPR17 Ca2+ assay)
Assay type: cell-based
Set-up: host or cells: Flp-In T-REx CHO
condition.details: CHO hGPR17 cells, inhibition of 50 nM MDL29,951, Calcium 5 dye, FLIPR; read-out: Ca2+ assay pIC50 (converted)
measurement.name: IC50

compound.structure	tested.target	IC50
CS(=O)(=O)c1ccc2c(S(=O)(=O)Nc3cccc4c3OC(F)(F)O4)c[nH]c2c1	UniProt Q13304	> 31.6 nM
O=S(=O)(Nc1ccccc1Cl)c1c[nH]c2cc(Cl)ccc12	UniProt Q13304	> 31.6 nM
O=S(=O)(Nc1ccc(Cl)cc1F)c1c[nH]c2cc(C(F)(F)F)ccc12	UniProt Q13304	> 31.6 nM
O=S(=O)(Nc1cccc2c1OCO2)c1c[nH]c2nc(Cl)ccc12	UniProt Q13304	3.16 to 31.6 nM
O=S(=O)(Nc1cc2c(cc1F)OC(F)(F)O2)c1c[nH]c2nc(Cl)ccc12	UniProt Q13304	> 31.6 nM

Request the reported IC50 associated with N#Cc1cc(F)c(NS(=O)(=O)c2c[nH]c3c2ccc2ccccc23)cc1F
< 3.16 nM

----------
This listing pairs compounds with measured Kb.
tested.target: GPR17 (Homo sapiens)
assay.remarks: cAMP accumulation functional assay (HTRF, Schild analysis)
Type: cell-based
Parameters: host or cells: Flp-In T-REx CHO
condition.details: CHO hGPR17 cells, Schild analysis vs MDL29,951, 5 μM forskolin, read-out: cAMP assay pA2 (converted)

Previously resolved entries follow.
compound.structure	Kb
N#Cc1cc(F)c(NS(=O)(=O)c2c[nH]c3c2ccc2ccccc23)cc1F	< 3.16 nM
O=S(=O)(Nc1cc(F)c(F)cc1F)c1c[nH]c2c1ccc1ccccc12	3.16 to 31.6 nM
C#Cc1ccc(NS(=O)(=O)c2c[nH]c3cc(OC)ccc23)c(F)c1	3.16 to 31.6 nM

Consider the record given below.
What value of Kb has been reported for the following compound? CCOC(=O)CCc1cc(F)c(NS(=O)(=O)c2c[nH]c3cc(Cl)ccc23)nc1F
< 3.16 nM

----------
tested.target: GPR17 (Homo sapiens, UniProt Q13304)
assay.remarks: Calcium mobilization functional assay (GPR17 Ca2+ assay)
Format: cell-based
Set-up: host or cells: Flp-In T-REx CHO
condition.details: CHO hGPR17 cells, inhibition of 50 nM MDL29,951, Calcium 5 dye, FLIPR; read-out: Ca2+ assay pIC50 (converted)
measurement.name: IC50

Solved cases (3 shown):
compound	measurement.name	measured
COc1nc(NS(=O)(=O)c2c[nH]c3c(Br)c(Cl)ccc23)c(F)cc1Cl [Compound I-321]	IC50	< 3.16 nM
O=S(=O)(Nc1ccc(OC(F)(F)F)cc1F)c1c[nH]c2nc(Cl)ccc12 [Compound I-273]	IC50	3.16 to 31.6 nM
O=S(=O)(Nc1ccc2nsnc2c1)c1c[nH]c2cc(Br)ccc12 [Compound I-183]	IC50	< 3.16 nM

# input compound: O=S(=O)(Nc1ccc2nsnc2c1)c1c[nH]c2c1ccc1ccccc12 [Compound I-157] ; wanted: its IC50
3.16 to 31.6 nM

Name the recorded IC50 for O=S(=O)(Nc1cccc2c1OCO2)c1c[nH]c2cc(Cl)ccc12 [Compound I-25] .
< 3.16 nM

What measured IC50 goes with COc1nc(NS(=O)(=O)c2c[nH]c3cc(Cl)ccc23)c(F)cc1F [Compound I-345] ?
3.16 to 31.6 nM

So what's the measured IC50 for this one? Cc1cc2c(S(=O)(=O)Nc3cc(F)ccc3F)c[nH]c2cc1Br [Compound I-27]
> 31.6 nM

Any idea what its IC50 is? The compound is O=S(=O)(Nc1ccc2nsnc2c1)c1c[nH]c2cc(C(F)(F)F)ccc12 [Compound I-192]
< 3.16 nM

----------
tested.target: GPR17 (Homo sapiens)
assay.remarks: Calcium mobilization functional assay (GPR17 Ca2+ assay)
Assay type: cell-based
Design: host or cells: Flp-In T-REx CHO
condition.details: CHO hGPR17 cells, inhibition of 50 nM MDL29,951, Calcium 5 dye, FLIPR; read-out: Ca2+ assay pIC50 (converted)
measurement.name: IC50

Worked examples, 5 compounds total:
compound	measured
N#Cc1ccc(NS(=O)(=O)c2c[nH]c3cc(OCC4CCCO4)ccc23)c(F)c1 (centres unmarked)	> 31.6 nM
CCc1cc(F)c(NS(=O)(=O)c2c[nH]c3cc(Cl)ccc23)nc1F	< 3.16 nM
N#Cc1ccc(NS(=O)(=O)c2c[nH]c3cc(Br)ccc23)c(F)c1	< 3.16 nM
COc1ccc2c(S(=O)(=O)Nc3cc(F)c(Cl)cc3F)c(F)[nH]c2c1	3.16 to 31.6 nM
O=S(=O)(Nc1ncc(F)cc1F)c1c[nH]c2cc(Cl)ccc12	3.16 to 31.6 nM

GET /values?readout=IC50&item= O=S(=O)(Nc1cc(F)c(OC(F)F)cc1F)c1c[nH]c2nc(Cl)ccc12
< 3.16 nM

Entry N#Cc1cc(F)c(NS(=O)(=O)c2c[nH]c3cc(F)cc(F)c23)cc1F has what IC50?
> 31.6 nM

Which IC50 is listed for O=S(=O)(Nc1cccc2c1OCO2)c1c[nH]c2nc(Br)ccc12 ?
3.16 to 31.6 nM
